The reported measurements were obtained from patent US20050090522A1.

Assay: Rat IV and PO pharmacokinetic studies
Conditions: male, Sprague-Dawley, in vivo, po, 5 mg/kg, AUC 24 h, oral dosing at 5 mg/kg
readout type: AUC(0-t) (µg·h/mL)
Please give a number only; it is taken to be in µg·h/mL.

Some solved cases for reference:
| chem smiles | AUC(0-t) (µg·h/mL) |
| --- | --- |
| COc1cnc(-n2cc(C)nn2)c2[nH]cc(C(=O)C(=O)N3CCN(C(=O)c4ccccc4)[C@H](C)C3)c12 | 9.8 |
| C[C@@H]1CN(C(=O)C(=O)c2c[nH]c3c(-c4ncco4)ccnc23)CCN1C(=O)c1ccccc1 | 1360 |
| COc1cnc(-n2ccc(CO)n2)c2[nH]cc(C(=O)C(=O)N3CCN(C(=O)c4ccccc4)[C@H](C)C3)c12 | 0.56 |

Now look at this one.
Could you tell me which AUC(0-t) is on file for `C[C@@H]1CN(C(=O)C(=O)c2c[nH]c3c(-n4nccn4)ccnc23)CCN1C(=O)c1ccccc1` ? 3.3

* * *

Test: Metabolic stability in pooled human liver microsomes (HLM)
Conditions: pooled human liver microsomes, 3 μM drug; Low/Intermediate/High
readout type: HLM predicted human clearance class

| compound | recorded measurement |
| --- | --- |
| O=C(C(=O)N1CCN(C(=O)c2ccccc2)CC1)c1c[nH]c2c(-c3ncco3)ccnc12 [Example 204] | Low (0-0.100) |
| C[C@@H]1CN(C(=O)C(=O)c2c[nH]c3c(-n4nccn4)ccnc23)CCN1C(=O)c1ccccc1 [Example 355] | Low (0-0.100) |
| CCc1ncn(-c2ncc(OC)c3c(C(=O)C(=O)N4CCN(C(=O)c5ccccc5)[C@H](C)C4)c[nH]c23)n1 [Example 322] | Low (0-0.100) |

* * *

Assay: Rat IV and PO pharmacokinetic studies
Conditions: male, Sprague-Dawley, in vivo, po, 5 mg/kg
readout type: AUC(0-t) (ng·h/mL)
Your answer should be a plain number; it is taken to be in ng·h/mL.

So what does the record say about AUC(0-t) for `COc1cnc(-n2cnc(C)n2)c2[nH]cc(C(=O)C(=O)N3CCN(C(=O)c4ccccc4)CC3)c12` ? 52000

* * *

Test: Rat IV and PO pharmacokinetic studies
Settings: male, Sprague-Dawley, in vivo, po, 5 mg/kg, AUC 24 h, oral dosing at 5 mg/kg
readout type: AUC(0-t) (ng·h/mL)
Numbers only; they are read as ng·h/mL.

Reference set (6 entries):
| compound | AUC(0-t), ng·h/mL |
| --- | --- |
| COc1cnc(-c2cnccn2)c2[nH]cc(C(=O)C(=O)N3CCN(C(=O)c4ccccn4)CC3)c12 [Example 102] | 6900 |
| COc1cnc(-n2ccc(C)n2)c2[nH]cc(C(=O)C(=O)N3CCN(C(=O)c4ccccc4)CC3)c12 [Example 190] | 7400 |
| O=C(C(=O)N1CCN(C(=O)c2ccccc2)CC1)c1c[nH]c2c(-n3ccnn3)ncc(F)c12 [Example 216] | 32000 |
| C[C@@H]1CN(C(=O)C(=O)c2c[nH]c3c(-c4nccs4)ccnc23)CCN1C(=O)c1ccccc1 [Example 354] | 1260 |
| O=C(C(=O)N1CCN(C(=O)c2ccccc2)CC1)c1c[nH]c2c(-n3nccn3)ccnc12 [Example 205] | 9600 |
| COc1cnc(-c2ncon2)c2[nH]cc(C(=O)C(=O)N3CCN(C(=O)c4ccccc4)CC3)c12 [Example 226] | 500 |

Given COc1cnc(-n2ccnc2)c2[nH]cc(C(=O)C(=O)N3CCN(C(=O)c4ccccc4)CC3)c12 [Example 193] , state its recorded AUC(0-t). 14000

AUC(0-t) lookup needed for COc1cnc(-n2cncn2)c2[nH]cc(C(=O)C(=O)N3CCN(C(=O)c4ccccc4)CC3)c12 [Example 187] , thanks. 22400

What measured AUC(0-t) goes with O=C(C(=O)N1CCN(C(=O)c2ccccc2)CC1)c1c[nH]c2c(-c3ncco3)ccnc12 [Example 204] ? 12000

// returns reported AUC(0-t) for input Cc1ncn(-c2ncc(F)c3c(C(=O)C(=O)N4CCN(C(=O)c5ccccc5)CC4)c[nH]c23)n1 [Example 306] 160000

Endpoint output: AUC(0-t) of Cc1ccn(-c2ncc(F)c3c(C(=O)C(=O)N4CCN(C(=O)c5ccccc5)CC4)c[nH]c23)n1 [Example 310] . Value? 2100
